This collection of values is drawn from patent US8124788B2.

# TARGET SYSTEM: human μ opiate receptor (Homo sapiens, UniProt P35372)
# Construct: purchased PerkinElmer Life Sciences, Zaventem, Belgium RB-HOM; host or cells: CHO-K1 cells (recombinant expression)
# Sequence (P35372 whole entry): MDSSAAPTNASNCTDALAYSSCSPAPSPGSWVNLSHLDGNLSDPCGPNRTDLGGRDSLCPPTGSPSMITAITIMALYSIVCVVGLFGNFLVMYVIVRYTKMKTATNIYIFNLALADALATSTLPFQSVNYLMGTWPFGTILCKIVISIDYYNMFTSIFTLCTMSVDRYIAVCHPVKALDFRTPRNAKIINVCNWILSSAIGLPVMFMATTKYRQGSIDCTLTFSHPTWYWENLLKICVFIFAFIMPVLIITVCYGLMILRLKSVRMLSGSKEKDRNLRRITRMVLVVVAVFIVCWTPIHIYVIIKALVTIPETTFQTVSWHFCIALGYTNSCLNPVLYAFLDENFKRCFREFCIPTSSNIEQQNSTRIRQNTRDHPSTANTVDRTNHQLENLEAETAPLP
# PROCEDURE DETAILS: Affinity for the human μ opiate receptor ([3H]-naloxone displacement, CHO-K1 membrane preparation, SPA)
# Type: binding
# RUN CONDITIONS: compounds prepared via automated synthesis; single measurements at a test concentration of 1 μM
# Experimental: The receptor affinity for the human μ opiate receptor is determined in a homogeneous set-up in microtitre plates. […] After the end of the ninety-minute incubation time, the microtitre plates are centrifuged for 20 minutes at 1,000 g and the radioactivity is measured in a β-counter (Microbeta-Trilum, PerkinElmer Wallac, Freiburg, Germany). […]
Classify by μ opioid receptor [1 μmol], % inhibition. Ranges: c1 = under 20%, c2 = from 20% up to 40%, c3 = 40% and over

Here's what some known entries look like.
In [3]: df
Out[3]:
                                   molecule  class
0  CC(CC(=O)N1CCc2c([nH]c3ccccc23)C12CCC(C(c1ccc(F)cc1)N(C)C)CC2)c1ccccc1 (stereo not drawn) [Compound 142]     c2
1  CN(C)C(c1ccc(Cl)cc1)C1CCC2(CC1)c1[nH]c3ccccc3c1CCN2C(=O)Cc1cccc(Br)c1 (stereo not drawn) [Compound 132]     c3
2  CN(C)C(c1ccccc1)C1CCC2(CC1)c1[nH]c3ccccc3c1CCN2C(=O)Cc1cccs1 (stereo not drawn) [Compound 82]     c2
3  CN(C)C(c1cccc(F)c1)C1CCC2(CC1)c1[nH]c3ccccc3c1CCN2C(=O)C1CC1 (stereo not drawn) [Compound 91]     c2
4  CN(C)C(c1cccc(F)c1)C1CCC2(CC1)c1[nH]c3ccccc3c1CCN2C(=O)COCc1ccccc1 (stereo not drawn) [Compound 94]     c2

**Query** Which bin should I file CCC(=O)N1CCc2c([nH]c3ccccc23)C12CCC(C(c1ccccc1)N(C)C)CC2 (stereo not drawn) [Compound 102] under?
**Result** c3

**Query** Which bin should I file CC(Oc1ccccc1)C(=O)N1CCc2c([nH]c3ccccc23)C12CCC(C(c1ccccc1)N(C)C)CC2 (stereo not drawn) [Compound 137] under?
**Result** c3

**Query** Which bin should I file CN(C)C(c1ccccc1)C1CCC2(CC1)c1[nH]c3ccccc3c1CCN2C(=O)C1CCCC1 (stereo not drawn) [Compound 125] under?
**Result** c2

**Query** Which bin should I file CN(C)C(c1ccc(Cl)cc1)C1CCC2(CC1)c1[nH]c3ccccc3c1CCN2C(=O)C1CC1 (stereo not drawn) [Compound 96] under?
**Result** c1

**Query** Which bin should I file CCCCC(CC)C(=O)N1CCc2c([nH]c3ccccc23)C12CCC(C(c1ccc(Cl)cc1)N(C)C)CC2 (stereo not drawn) [Compound 118] under?
**Result** c2

**Query** Which bin should I file CN(C)C(c1ccccc1)C1CCC2(CC1)c1[nH]c3ccccc3c1CCN2C(=O)CC(C)(C)C (stereo not drawn) [Compound 56] under?
**Result** c2

**Query** Which bin should I file CCC(CC)C(=O)N1CCc2c([nH]c3ccccc23)C12CCC(C(c1ccc(F)cc1)N(C)C)CC2 (stereo not drawn) [Compound 139] under?
**Result** c2

**Query** Which bin should I file CN(C)C(c1ccc(Cl)cc1)C1CCC2(CC1)c1[nH]c3ccccc3c1CCN2C(=O)c1cc2ccccc2s1 (stereo not drawn) [Compound 78] under?
**Result** c1

* * *

Where a name gives a salt, the structure may show the parent alone.
Would you kindly list melting point for each of these molecules?

As a guide, the following entries are already answered.
In [3]: df
Out[3]:
                                   molecule  measured_result
0  CN(C)C(CCc1ccccc1)C1CCC2(CC1)NCCc1c2[nH]c2ccccc12 (stereo not shown) (as salt: citrate)    130 to 135 °C
1  Cc1ccc2[nH]c3c(c2c1)CC(C)OC31CCC(C(c2ccccc2)N(C)C)CC1 (stereo not shown) (as salt: citrate)    245 to 250 °C
2  CN(C)C(c1cccc(F)c1)C1CCC2(CC1)NCCc1c2[nH]c2ccccc12 (stereo not shown)    226 to 229 °C

Now take the following molecule into account.
**Query** Would you mind telling me what melting point value was observed for CN(C)C(c1ccccc1)C1CCC2(CC1)NCCc1c2[nH]c2ccccc12 (stereo not shown) ?
**Result** 182 to 184 °C

* * *

# TARGET SYSTEM: human μ opiate receptor (Homo sapiens, UniProt P35372)
# PROCEDURE DETAILS: Affinity for the human μ opiate receptor ([3H]-naloxone displacement, CHO-K1 membrane preparation, SPA)
# RUN CONDITIONS: Cheng-Prusoff conversion from IC50; read-out: μ opioid receptor, Ki
ASSAY READOUT: log10(Ki) (log10 of the value in nM)
Please note: log10 values; quantity Ki; unit nM.

In [3]: df
Out[3]:
                                   compound  measured_result
0  CN(C)C(c1ccccc1)C1CCC2(CC1)OCCc1c2[nH]c2ccccc12 (centres unmarked)             1.41
1  Cc1ccc2[nH]c3c(c2c1)CC(C)OC31CCC(C(c2ccccc2)N(C)C)CC1 (centres unmarked)             1.46
2  CN(C)C(c1cccc(F)c1)C1CCC2(CC1)OCCc1c2[nH]c2ccc(F)cc12 (centres unmarked)             1.66
3  CN(C)C(CCc1ccccc1)C1CCC2(CC1)NCCc1c2[nH]c2ccccc12 (centres unmarked)             1.53
4  Cc1ccc2[nH]c3c(c2c1)CC(C)OC31CCC(C(c2cccc(F)c2)N(C)C)CC1 (centres unmarked)             2.48
5  CN(C)C(c1ccccc1)C1CCC2(CC1)OCCc1c2[nH]c2ccc(F)cc12 (centres unmarked)             1.57
6  CN(C)C(c1ccc(F)cc1)C1CCC2(CC1)OCCc1c2[nH]c2ccccc12 (centres unmarked)             2.54

Now take the following compound into account.
**Query** Would you mind telling me what log10(Ki) value was observed for Cc1ccc2[nH]c3c(c2c1)CC(C)OC31CCC(C(c2ccc(Cl)cc2)N(C)C)CC1 (centres unmarked) ?
**Result** 2.69

* * *

# TARGET SYSTEM: human μ opiate receptor (Homo sapiens, UniProt P35372)
# PROCEDURE DETAILS: Affinity for the human μ opiate receptor ([3H]-naloxone displacement, CHO-K1 membrane preparation, SPA)
# RUN CONDITIONS: Cheng-Prusoff conversion from IC50; read-out: μ opioid receptor, Ki
# if measured Ki < 100 nM: yes  # else: no

Here's what some known entries look like.
>>> df
                                   compound  class
0  CN(C)C(c1cccc(F)c1)C1CCC2(CC1)NCCc1c2[nH]c2ccccc12 (stereo not drawn)     no
1  CN(C)C(c1cccs1)C1CCC2(CC1)OCCc1c2[nH]c2ccccc12 (stereo not drawn)    yes
2  CN(C)C(c1ccc(Cl)cc1)C1CCC2(CC1)OCCc1c2[nH]c2ccccc12 (stereo not drawn)     no
3  CN(C)C(CCc1ccccc1)C1CCC2(CC1)OCCc1c2[nH]c2ccccc12 (stereo not drawn)     no
4  CN(C)C(c1ccccc1)C1CCC2(CC1)NCCc1c2[nH]c2ccccc12 (stereo not drawn)     no

Now examine the next entry.
**Query** Identify whether the compound CN(C)C(c1ccc(Cl)cc1)C1CCC2(CC1)OCCc1c2[nH]c2ccc(F)cc12 (stereo not drawn) records Ki below 100 nM.
**Result** no

* * *

# TARGET SYSTEM: Serotonin reuptake (Rattus norvegicus)
# Construct: synaptosomes are freshly isolated from areas of the rat brain; from tissue
# Sequence (P31652 whole entry): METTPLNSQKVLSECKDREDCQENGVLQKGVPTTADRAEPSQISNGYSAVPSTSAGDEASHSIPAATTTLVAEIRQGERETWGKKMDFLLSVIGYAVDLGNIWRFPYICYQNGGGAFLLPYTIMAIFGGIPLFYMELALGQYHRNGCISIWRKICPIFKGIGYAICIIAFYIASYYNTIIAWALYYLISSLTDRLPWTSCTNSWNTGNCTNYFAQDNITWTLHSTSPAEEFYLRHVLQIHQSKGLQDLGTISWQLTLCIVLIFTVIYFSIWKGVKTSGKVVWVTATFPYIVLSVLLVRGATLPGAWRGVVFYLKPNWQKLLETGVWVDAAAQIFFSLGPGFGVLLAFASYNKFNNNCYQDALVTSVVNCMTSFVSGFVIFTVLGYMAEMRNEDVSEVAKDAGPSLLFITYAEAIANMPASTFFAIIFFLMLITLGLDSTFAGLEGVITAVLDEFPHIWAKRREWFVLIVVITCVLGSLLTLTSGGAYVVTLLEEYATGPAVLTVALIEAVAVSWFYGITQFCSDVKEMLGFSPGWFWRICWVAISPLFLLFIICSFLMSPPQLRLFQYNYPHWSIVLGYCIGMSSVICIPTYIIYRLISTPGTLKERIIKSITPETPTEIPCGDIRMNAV
# PROCEDURE DETAILS: Inhibition of serotonin (5HT) reuptake in rat brain synaptosomes
# Assay type: biochemical
ASSAY READOUT: inhibition at 10 µM (%)
One number for each entry, in %.

>>> df
                                   compound  measured_result
0  CN(C)C(c1cccc(F)c1)C1CCC2(CC1)OCCc1c2[nH]c2ccccc12 (stereo not drawn)               59
1  CN(C)C(c1ccc(Cl)cc1)C1CCC2(CC1)OCCc1c2[nH]c2ccccc12 (stereo not drawn)               56
2  Cc1ccc2[nH]c3c(c2c1)CC(C)OC31CCC(C(c2ccccc2)N(C)C)CC1 (stereo not drawn)               64

Report inhibition at 10 µM for every entry below.
1. CN(C)C(c1ccccc1)C1CCC2(CC1)NCCc1c2[nH]c2ccccc12 (stereo not drawn)
2. CN(C)C(c1ccccc1)C1CCC2(CC1)OCCc1c2[nH]c2ccc(F)cc12 (stereo not drawn)
3. CN(C)C(c1ccc(F)cc1)C1CCC2(CC1)OCCc1c2[nH]c2ccc(F)cc12 (stereo not drawn)

**Result**
1: 91; 2: 68; 3: 55
